Record set: pKi | Adenosine receptor A2a (Rattus norvegicus) | literature, multiple sources.
API: returns pKi as number; meaning -log10 of concentration in mol/L.

Data point: CCCCn1c(=O)c2c(nc3n2CCCN3CCc2ccc(OCC(=O)NCCCn3ccnc3)cc2)n(CCCC)c1=O ; pKi = 6.24

// CSc1nc(N)n2nc(-c3ccco3)nc2n1 : pKi value = 7.02

Briefly, pKi measured for Cc1ccc(C(=O)N[C@H]2C(CO)OC(n3cnc4c(NC5CCCC5)ncnc43)C2O)cc1 (stereo partly drawn) : 6.10

Noted for CC(C)COc1nc(N)c2ncn(C3O[C@H](CO)[C@@H](O)[C@H]3O)c2n1 (stereo partly drawn) : its pKi reads 6.15

Value of measured pKi for the entry Cc1cc(CN(C)CCNc2nc(N)n3nc(-c4ccco4)nc3n2)no1 : 7.10

Form field pKi, entry Nc1nc(N2CCN(Cc3cccnc3)CC2)nc2nc(-c3ccco3)nn12 : 6.55

Entry CN(C)c1nc(N)n2nc(-c3ccco3)nc2n1 — recorded pKi = 5.42

Value of pKi reported for the compound Nc1cccc(-c2cc3nc(-c4ccco4)nn3c(N)n2)c1 is 8.30

pKi measured on Cn1c(=O)c2c(nc3n2CCN([C@@H]2CCc4ccccc42)C3)n(C)c1=O = 5.29

Kindly note the recorded pKi for OC[C@H]1O[C@@H](n2cnc3c(NC4CCCC4)ncnc32)[C@H](O)[C@@H]1O , which is 6.24

The measured pKi associated with CCCn1c(=O)c2nc(-c3cc(O)ccc3O)[nH]c2n(CCC)c1=O reads 4.76

Memo: CCNC(=O)[C@H]1O[C@@H](n2cnc3c(NC(=O)Nc4ccc(I)cc4)ncnc32)[C@H](O)[C@@H]1O , reported pKi: 6.25

Looking up COCCOc1ccc(N2CCN(Cc3cccc(-c4cc5nc(-c6ccco6)nn5c(N)n4)c3)CC2)cc1 , I see its pKi listed as 8.55

Data point: CCNC(=O)[C@H]1O[C@@H](n2cnc3c(NC(=O)Nc4cccc(Cl)c4)nc(Cl)nc32)[C@H](O)[C@@H]1O ; pKi = 6.25

Recorded pKi (compound CC(C)C[C@H](CO)Nc1ncnc2c1ncn2C1O[C@H](CO)[C@@H](O)[C@H]1O (stereo partly drawn) ): 4.52

Looking up Nc1nc2c(cnn2CCc2ccccc2)c2nc(-c3ccco3)nn12 , I found its pKi recorded as 7.43

Given item OC[C@@H](Cc1ccccc1)Nc1nc(Cl)nc2c1ncn2C1O[C@H](CO)[C@@H](O)[C@H]1O (stereo partly drawn) , the value recorded as its pKi is 4.98

get_value(item= CCCCn1c(=O)c2c(nc3n2CCCN3CCc2ccc(OCC(=O)NCCc3ccc(S(N)(=O)=O)cc3)cc2)n(CCCC)c1=O , readout=pKi) returns 5.64

Recorded pKi (compound CCCOC(=O)c1c(-c2ccccc2)nc(CC)c(C(=O)SCC)c1CCO ): 7.99

So for CCCn1c(=O)[nH]c2nc(-c3ccc(S(=O)(=O)NCC(=O)O)cc3)[nH]c2c1=O , the logged pKi turned out to be 6.49

pKi reading for CC[C@H](COc1nc(N)c2ncn(C3O[C@H](CO)[C@@H](O)[C@H]3O)c2n1)c1ccccc1 (stereo partly drawn) : 6.37

For reference, reported pKi for CCCn1c(=O)c2[nH]c(-c3ccc(OC)cc3O)nc2n(CCC)c1=O stands at 5.26

pKi for CCO/C(O)=C1\C(C)=NC(c2ccccc2)=C(C(=O)OCc2ccccc2)C1C (stereo not drawn) is 5.50

The recorded pKi for OC[C@H]1O[C@@H](n2cnc3c(NC4CCC4)cc(Cl)nc32)[C@H](O)[C@@H]1O is 5.51

Lab note: measured pKi of Nc1nc(NCCCN2CCN(c3c(F)cc(F)cc3F)CC2)nc2nc(-c3ccco3)nn12 was 7.00

Per the record, CCCC(=O)Nc1nc2ccc(Cl)cc2c2nc(-c3ccco3)nn12 has pKi of 7.42

For reference, reported pKi for COc1ccc(CCN2CCCn3c2nc2c3c(=O)n(C)c(=O)n2C)cc1 stands at 6.43

Given item CC(C)c1ccc(C(=O)N[C@@H]2[C@@H](O)[C@H](n3cnc4c(NC5CCCC5)ncnc43)O[C@@H]2CO)cc1 , the value recorded as its pKi is 6.36

Entry Nc1nc(N2CCN(Cc3c(F)ccc(F)c3F)CC2)nc2nc(-c3ccco3)nn12 — recorded pKi = 8.00
